- Tested on: THRa:RXRa (NR concentration 90 nM, RXRa partner concentration 90 nM)
- METHOD_NOTES: PBM binding z-score (relative to random genomic background probes); higher = stronger binding; sequences stand for … in GC…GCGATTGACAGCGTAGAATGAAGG
Label rule, in plain words: PBM binding z-score of 4 and up is Condition met, under 4 is Condition not met.

TCTGCTAGGTCAACGAGGGTCAGCTAATCTGCTA    Condition met
CCTACTTGGTCAGGAGGTCACACACCGGATATGA    Condition not met
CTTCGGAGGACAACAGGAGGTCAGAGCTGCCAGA    Condition not met
CCTACTGGGCCAGGAAAGGTCATTGATTCAGTGA    Condition not met
CCTAGCGGGCCAATCTGGGTCACTCAAGGCTTGA    Condition not met

Evaluate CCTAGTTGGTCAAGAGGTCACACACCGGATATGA : PBM binding z-score at minimum 4? Condition met

Evaluate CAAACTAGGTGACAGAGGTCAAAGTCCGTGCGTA : PBM binding z-score at minimum 4? Condition met

Evaluate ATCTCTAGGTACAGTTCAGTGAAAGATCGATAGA : PBM binding z-score at minimum 4? Condition not met

Evaluate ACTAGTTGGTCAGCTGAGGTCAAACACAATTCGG : PBM binding z-score at minimum 4? Condition met

* * *

- System: PPARg DBDmut IVT, anti-PPARg (DBD mutation: PPARg1 K132A/R137A, NR concentration 270 nM)
- METHOD_NOTES: PBM binding z-score (relative to random genomic background probes); higher = stronger binding; sequences stand for … in GC…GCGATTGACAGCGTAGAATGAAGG
VALUE_TYPE: PBM binding z-score
When you answer, write just the number.

Worked cases, PBM binding z-score given:
TCTGCTAGGTCAGTTGATCAGCTAACGAGCTGCC    -0.296
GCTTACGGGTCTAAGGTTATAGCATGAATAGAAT    0.266
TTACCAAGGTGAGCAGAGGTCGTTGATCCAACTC    -0.173

# return recorded PBM binding z-score for input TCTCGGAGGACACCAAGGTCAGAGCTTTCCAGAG -0.885

# return recorded PBM binding z-score for input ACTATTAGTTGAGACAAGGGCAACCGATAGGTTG 0.362

# return recorded PBM binding z-score for input TCTGCTAGGTCAGTTTGTCAGCTAACGAGCTGCC 0.15

* * *

PBM binding z-score listing for selected sequences.
- Test system: PPARg:RXRa (NR concentration 180 nM, RXRa partner concentration 90 nM)
- METHOD_NOTES: PBM binding z-score (relative to random genomic background probes); higher = stronger binding; sequences stand for … in GC…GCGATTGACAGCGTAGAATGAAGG
When you answer, write just the number.

Worked cases, PBM binding z-score given:
TCTTGTAGATCAAGCAGGTTAAGAAAGCCTGAGT    -0.57
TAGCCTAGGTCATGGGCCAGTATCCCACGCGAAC    3.88
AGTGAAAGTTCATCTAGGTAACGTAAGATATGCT    5.39
ACTAGCAGGCCAAGGCTCACTCAAGATTAGTCCG    0.588
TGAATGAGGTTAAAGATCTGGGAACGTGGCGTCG    2.7

# return recorded PBM binding z-score for input CTCAAAAGGTCGTGCTCAGGTGAGTATACCAAAC 3.14

# return recorded PBM binding z-score for input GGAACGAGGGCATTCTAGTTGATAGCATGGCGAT 0.871

# return recorded PBM binding z-score for input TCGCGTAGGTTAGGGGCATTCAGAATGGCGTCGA -0.162

# return recorded PBM binding z-score for input CCGAGTAGGTTATGGGGCATTCCGGCAACGGTGA 3.05

# return recorded PBM binding z-score for input CGTCCAAGTTCAGAGAGGTCAGTGAATGCCGAGT 0.531

# return recorded PBM binding z-score for input CATACGGGGTCAGCTAGGCCAGAGTAGGGACGGC 7.29

# return recorded PBM binding z-score for input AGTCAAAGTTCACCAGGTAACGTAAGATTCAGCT 6.96

Values from the supplement of paper PMC6555819
